Assignment: determine reported abundance fitness for the given variants.
B1: Pituitary-specific positive transcription factor 1, residues 130 to 198; numbered along this chain, P28069 (parent)
chain: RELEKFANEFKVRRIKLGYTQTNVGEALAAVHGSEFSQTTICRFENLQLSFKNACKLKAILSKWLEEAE

# Variants of: B1
# protocol_notes: abundance fitness (aPCA) (normalised: wild type 0, dead -1); higher = more abundant; growth selection in yeast, the domain comes from the species named
# experimental_setup: Homo sapiens
Form: value (number only, do not type unit).

Form: variant = L28M ; abundance fitness = -0.824

Given item L3W , the value recorded as its abundance fitness is -0.715

abundance fitness recorded for this variant, E2K , is -0.471

T40G has a reported abundance fitness of -0.528

abundance fitness measured on N8G = -0.336

Form field abundance fitness, entry N46V : -0.661

Record I41H . Reported abundance fitness: -0.56

abundance fitness measured on L3M = -0.469

The variant L17H showed abundance fitness equal to -0.497

Lab note: measured abundance fitness of L47Y was -0.428

response.value for I41T (field: abundance fitness) = -0.892

N53W has a reported abundance fitness of -0.271

Lab book: abundance fitness of F36M noted as -0.31

F6Q has a reported abundance fitness of -0.916

// recorded abundance fitness for A29Y : -0.609

Value of measured abundance fitness for the entry L47V : -0.888

Recorded abundance fitness (variant F6N ): -0.88

Noted for F44R : its abundance fitness reads -0.871

Item: Y19F | abundance fitness: -0.501

Briefly, abundance fitness measured for I60P : -0.2

Given item Q21G , the value recorded as its abundance fitness is -1.07

Given item N23S , the value recorded as its abundance fitness is 0.086

Attribution: the Human Domainome abundance scans (Beltran et al. 2025)
